Test system: KRAS G12V-dependent Ba/F3 cells
Test Details: Ba/F3 proliferation assay, KRAS G12V
Type: cell-based
Condition Label: Mus musculus, BaF3, 72 h, AlamarBlue
pIC50: −log10 of the molar value.
Assay Endpoint: pIC50

P = C[C@H](Oc1cc(-n2ccc(C(=O)N(C)C3COC3)n2)nc(-c2noc3c2CCC[C@@]32CCCc3sc(N)c(C#N)c32)n1)[C@@H]1CCCN1C
Q = C[C@H](Oc1cc(-c2cncs2)nc(-c2noc3c2CCC[C@@]32CCCc3sc(N)c(C#N)c32)n1)[C@@H]1CCCN1C
q: Short answer wanted: higher pIC50, P or Q ? Give the chosen item's label as your response.
a: P
(P: 8.40, Q: 8.00)

Hey, just so you know, these numbers are from patent US20240174690A1.
